Below, each of the compounds is paired with its reported lowest protein per band visible value.
Tested on: Promega Mid Range Molecular Weight Standards
Assay: Detection of fractionated protein in SDS-PAGE gels using dansyl derivatives made in acetone
Conditions: 2% (v/v) eluate in 10% methanol, two hours of staining
Express it in ng; write the number only.

chemical string: CCCCCCCCCCNS(=O)(=O)c1cccc2c(N(C)C)cccc12
uom: ng
lowest protein per band visible: 25
//
chemical string: CCCCCCCCCCCCNS(=O)(=O)c1cccc2c(N(C)C)cccc12
uom: ng
lowest protein per band visible: 300
//
chemical string: CCCCNS(=O)(=O)c1cccc2c(N(C)C)cccc12
uom: ng
lowest protein per band visible: 300
//
chemical string: CCOC(=O)c1ccc(NS(=O)(=O)c2cccc3c(N(C)C)cccc23)cc1
uom: ng
lowest protein per band visible: 25

Request: Please look at this compound and report its lowest protein per band visible: `CCCCCCNS(=O)(=O)c1cccc2c(N(C)C)cccc12`
Response: 25

Where do these numbers come from? They come from patent US5705649A.
